The reported numbers originate from paper PMC6336890.

Target entity: PARP1 (Homo sapiens)
Sequence (P09874 2-1014): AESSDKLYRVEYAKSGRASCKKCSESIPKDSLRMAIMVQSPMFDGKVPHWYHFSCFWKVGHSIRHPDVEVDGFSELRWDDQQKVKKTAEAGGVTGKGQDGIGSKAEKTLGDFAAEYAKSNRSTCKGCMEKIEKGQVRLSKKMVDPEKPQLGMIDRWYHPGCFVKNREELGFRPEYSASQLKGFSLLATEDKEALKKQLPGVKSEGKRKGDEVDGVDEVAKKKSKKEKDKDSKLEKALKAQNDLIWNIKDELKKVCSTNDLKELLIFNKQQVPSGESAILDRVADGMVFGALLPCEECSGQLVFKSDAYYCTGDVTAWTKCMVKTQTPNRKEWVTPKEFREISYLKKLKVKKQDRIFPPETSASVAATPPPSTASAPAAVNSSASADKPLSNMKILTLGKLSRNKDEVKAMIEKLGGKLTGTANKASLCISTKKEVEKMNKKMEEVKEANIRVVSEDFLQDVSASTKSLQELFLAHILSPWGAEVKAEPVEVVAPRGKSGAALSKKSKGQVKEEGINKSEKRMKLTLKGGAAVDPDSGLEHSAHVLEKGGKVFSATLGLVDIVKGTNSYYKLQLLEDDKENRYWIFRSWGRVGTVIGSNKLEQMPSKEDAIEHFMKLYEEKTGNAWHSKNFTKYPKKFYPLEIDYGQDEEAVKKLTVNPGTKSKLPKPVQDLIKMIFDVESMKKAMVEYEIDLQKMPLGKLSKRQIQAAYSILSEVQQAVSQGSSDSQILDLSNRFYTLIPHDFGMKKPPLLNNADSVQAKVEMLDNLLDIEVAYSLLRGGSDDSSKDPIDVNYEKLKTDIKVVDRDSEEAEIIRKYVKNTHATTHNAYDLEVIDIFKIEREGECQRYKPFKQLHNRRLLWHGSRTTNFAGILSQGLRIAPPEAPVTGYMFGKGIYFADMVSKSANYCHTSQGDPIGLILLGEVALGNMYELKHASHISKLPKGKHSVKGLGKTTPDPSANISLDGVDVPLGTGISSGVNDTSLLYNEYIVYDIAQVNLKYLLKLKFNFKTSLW
Measurement notes: in vitro PARP1 activity ELISA, recombinant enzyme
Property: pIC50
Remember, pIC50 is on a log scale: it is -log10 of the molar concentration.

Query: Any idea what its pIC50 is? The compound is Cc1ccc2c(=O)[nH]c(-c3ccc(C(C)(C)O)cc3)cn12 [MSC2504877]
Response: 6.27
